Where a SMILES comes first, the peptide text is derived from it.
Mark rule met only when logP stays strictly below 3. Values equal to the cut-off are rule not met.

{"compound": "CC(=O)Oc1coc(CBr)cc1=O", "classification": "rule met"}
{"compound": "C=C1C=CCC(C)=CCC1", "classification": "rule not met"}
{"compound": "O=C1CN=C(c2ccccc2)c2ccc(C(F)(F)F)cc2N1", "classification": "rule not met"}
{"compound": "CCC(C)C(NC(=O)CNC(=O)C1CCCN1C(=O)C(N)Cc1ccc(O)cc1)C(=O)O (configuration not stated) (H-YPGI-OH; configuration not given here)", "classification": "rule met"}
{"compound": "CC(C)CC(N)C(=O)NC(CC(C)C)C(=O)N1CCCC1C(=O)O (stereo not drawn) (H-Leu-Leu-Pro-OH; configuration not given here)", "classification": "rule met"}
{"compound": "Clc1ccc(-c2c[nH]cc2N2CCOCC2)cc1", "classification": "rule not met"}
{"compound": "CSCC[C@H](N)C(=O)N1CCC[C@H]1C(=O)O (H-Met-Pro-OH)", "classification": "rule met"}
{"compound": "CCNC(=S)NS(=O)(=O)c1cnccc1NC1CCCCC1", "classification": "rule not met"}
{"compound": "c1ccc2c(c1)OCC(Cc1ncc[nH]1)O2 (configuration not stated)", "classification": "rule met"}
{"compound": "CC(NCC(O)CON=C(C1CC1)C1CC1)c1ccccc1 (configuration not stated)", "classification": "rule met"}
{"compound": "Clc1ccc2oc3c(Cl)c(Cl)cc(Cl)c3c2c1", "classification": "rule not met"}
{"compound": "Cc1ccc(OC(=O)CNC(=O)c2ccccc2)c(C)c1", "classification": "rule not met"}
{"compound": "Clc1cc(Oc2ccccc2)c(Cl)c(Cl)c1Cl", "classification": "rule not met"}
{"compound": "O=C1C=C(N2CCOCC2)C(=O)N1c1ccc(Cl)cc1", "classification": "rule met"}
{"compound": "C=CC(=O)OCCOCCO", "classification": "rule met"}
{"compound": "C=CCC(=O)Nc1ccc(Cl)c(Cl)c1", "classification": "rule not met"}
{"compound": "Nc1nc(N)nc(-c2ccc(SC(F)(F)F)cc2)n1", "classification": "rule not met"}
{"compound": "COC(=O)c1c(N2CCOCC2)c(-c2ccc(Cl)cc2)cn1C(=O)c1ccccc1", "classification": "rule not met"}
{"compound": "CC(C)NC(=NC#N)NS(=O)(=O)c1cnccc1Nc1cccc(F)c1", "classification": "rule met"}
{"compound": "CC(C)CC(NC(=O)C(Cc1ccc(O)cc1)NC(=O)C(N)Cc1ccc(O)cc1)C(=O)O (stereo not drawn) (H-Tyr-Tyr-Leu-OH; configuration not given here)", "classification": "rule met"}
{"compound": "CCOc1cc2ncnc(Nc3cccc(I)c3)c2cc1OCC", "classification": "rule not met"}
{"compound": "NC1CC(CO)N(c2cc3c(cc2F)c(=O)c(C(=O)O)cn3-c2ccc(F)cc2F)C1 (configuration not stated)", "classification": "rule met"}
{"compound": "CNc1ccc(S(=O)(=O)N(C)C)cc1", "classification": "rule met"}
{"compound": "Cc1c(C)c2cc(C)c3occc3c2oc1=O", "classification": "rule not met"}
{"compound": "CC(C)CNc1[nH]cnc2ncnc1-2", "classification": "rule met"}
{"compound": "COc1ccc(CCN(C)CCCC(C#N)(c2cc(OC)c(OC)c(OC)c2)C(C)C)cc1OC (configuration not stated)", "classification": "rule not met"}
{"compound": "CCOC(=O)Nc1ccc2cc3ccc4c(c3nc2c1)COCN4C(=O)OCC", "classification": "rule not met"}
{"compound": "CC(=O)NC1=C(Cl)C(=O)c2ccccc2C1=O", "classification": "rule met"}
{"compound": "O=C(Nc1ncc([N+](=O)[O-])s1)c1ccc(Cl)c(Cl)c1", "classification": "rule not met"}
{"compound": "CC(=O)OCOC(=O)C(C)c1cccc(C(=O)c2ccccc2)c1 (configuration not stated)", "classification": "rule not met"}
{"compound": "Cc1cc2c(o1)c(C)c(C)c1ccc(=O)oc12", "classification": "rule not met"}
{"compound": "CCN(CC)NC(=O)NS(=O)(=O)c1ccc(C)cc1", "classification": "rule met"}
{"compound": "CC(C)(C)[N+]([O-])=Cc1ccc([N+](=O)[O-])cc1", "classification": "rule met"}
{"compound": "COc1cc(OC)nc(Sc2cccc(Oc3ccccc3)c2C(=O)O)n1", "classification": "rule not met"}
{"compound": "COC(=O)CCSc1ccc2nc(-c3ccc(N(C)C)cc3)cn2c1", "classification": "rule not met"}
{"compound": "c1[nH]nc2c1CCC1c3n[nH]cc3CCC21 (configuration not stated)", "classification": "rule met"}
{"compound": "CCCN(CCC)C1CCc2c(O)cccc2C1C (configuration not stated)", "classification": "rule not met"}
{"compound": "CN(C)CCOc1cccc(Cl)c1", "classification": "rule met"}
{"compound": "CN1COCc2c1ccc1cc3ccc4c(c3nc21)COC(=O)N4", "classification": "rule met"}
